# method_notes: Oral bioavailability in rat
# Assay type: ADME, organism-based
# settings: in vivo
parameter_measured: bioavailability (%)
The response must be a number in % with no trailing unit.

Form: compound = "O=C(CN1C(C(=O)c2ccccc2)=C(O)c2ccccc2S1(=O)=O)c1ccccc1" ; bioavailability = 48.7

###

For each record, write down the corresponding IC50.
# test_system: 11-beta-hydroxysteroid dehydrogenase 1 (Mus musculus, UniProt P50172)
# Sequence (P50172 whole entry): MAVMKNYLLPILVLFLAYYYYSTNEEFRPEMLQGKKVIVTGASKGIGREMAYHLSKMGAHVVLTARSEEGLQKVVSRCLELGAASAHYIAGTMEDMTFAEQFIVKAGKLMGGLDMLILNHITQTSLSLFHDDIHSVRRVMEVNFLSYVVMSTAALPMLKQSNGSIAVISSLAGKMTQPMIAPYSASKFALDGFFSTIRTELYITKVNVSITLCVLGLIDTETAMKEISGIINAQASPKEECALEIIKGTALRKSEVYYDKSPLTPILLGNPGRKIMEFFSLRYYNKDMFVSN
# method_notes: Inhibition of 11beta-HSD1 in mouse C2C12 cells by HTRF cortisol assay
The response must be a number in µM with no trailing unit.

Per the reported 11-beta-hydroxysteroid dehydrogenase 1 (Mus musculus, UniProt P50172) data, "N#Cc1ccc(C(=O)CN2C(C(=O)c3ccccc3)=C(O)c3ccccc3S2(=O)=O)cc1" has IC50 of 9

Per the reported 11-beta-hydroxysteroid dehydrogenase 1 (Mus musculus, UniProt P50172) data, "O=C(CN1C(C(=O)c2ccccc2)=C(O)c2ccccc2S1(=O)=O)c1ccccc1" has IC50 of 7.8

From: ChEMBL document CHEMBL1159080
